# Study system: α-glucosidase (Yeast)
# Assay remarks: α-glucosidase inhibition type and kinetic analysis (Lineweaver–Burk)
# Assay type: biochemical
# Run parameters: binding to α-glucosidase; Lineweaver–Burk
Value type: Ki
A complete answer gives the number and then names the unit.

Observe how each entry below is paired with its result.
• COc1cc(-c2oc3cc(O)cc(O)c3c(=O)c2O)ccc1O = 15.1 mM
• O=c1c(O[C@@H]2O[C@H](CO)[C@H](O)[C@H](O)[C@H]2O)c(-c2ccc(O)c(O)c2)oc2cc(O)cc(O)c12 [Hyperoside, hyperoside] = 3.79 mM
• C[C@@H]1O[C@@H](Oc2c(-c3ccc(O)c(O)c3)oc3cc(O)cc(O)c3c2=O)[C@H](O)[C@H](O)[C@H]1O = 5.31 mM

So, `O=C(O)c1ccc(O)c(O)c1` ? Its Ki was 17.7 mM
